# TARGET: T1, human IL-12 (human, UniProt P29460 23-328; P29459 23-219)
# T1 construct: Recombinant (Peprotech); FLAG-tagged IL-12 in the flow cytometry assays, biotinylated in the IL-12Rβ2 assay; also called hIL-12
# T1 sequence 1: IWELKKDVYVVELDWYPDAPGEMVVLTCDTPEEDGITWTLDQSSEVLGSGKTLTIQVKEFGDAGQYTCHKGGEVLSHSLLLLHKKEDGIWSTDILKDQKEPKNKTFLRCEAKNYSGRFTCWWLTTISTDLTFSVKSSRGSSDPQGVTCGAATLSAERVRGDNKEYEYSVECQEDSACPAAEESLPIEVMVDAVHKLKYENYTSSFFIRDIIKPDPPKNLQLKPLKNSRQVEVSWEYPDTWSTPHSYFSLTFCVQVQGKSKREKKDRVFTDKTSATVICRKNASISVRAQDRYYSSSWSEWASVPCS
# T1 sequence 2: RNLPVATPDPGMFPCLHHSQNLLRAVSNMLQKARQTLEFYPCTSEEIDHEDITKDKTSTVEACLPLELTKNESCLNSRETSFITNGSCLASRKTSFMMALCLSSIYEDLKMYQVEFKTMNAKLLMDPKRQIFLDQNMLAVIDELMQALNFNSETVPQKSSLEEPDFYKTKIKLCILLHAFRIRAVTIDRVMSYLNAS
# MEASUREMENT_NOTES: SPR, purified scFv captured via FLAG
MEASURED_ATTRIBUTE: kon (M⁻¹ s⁻¹)
The reply should contain only the number, in M⁻¹ s⁻¹.

INSERT INTO results (binder, unit_name, data_value) VALUES
  ('scFv BU-B1 (scFv, scFv-80 variant: VH L34M; not shown: proprietary C-terminal FLAG tag) scFv: QVQLVQSGAEVKKPGASVKVSCKASGYTFTDYYMHWVRQAPGQGLEWMGWIDPENGDTEYAPKFQGRVTMTTDTSTSTAYMELRSLRSDDTAVYYCNANKELRYFDVWGQGTMVTVSSGGGGSGGGGSGGGGSEIVMTQSPATLSVSPGERATLSCRASQSISINLHWYQQKPGQAPRLLIYFASQSISGIPARFSGSGSGTEFTLTISSLQSEDFAVYYCQQSNSFPLTFGGGTKVEIKR', 'M⁻¹ s⁻¹', '2e+06');

Prompt line: Quick one: kon of scFv AQ-G10 (scFv, scFv-80 variant: VH K12E, R66G; not shown: proprietary C-terminal FLAG tag) scFv: QVQLVQSGAEVEKPGASVKVSCKASGYTFTDYYLHWVRQAPGQGLEWMGWIDPENGDTEYAPKFQGGVTMTTDTSTSTAYMELRSLRSDDTAVYYCNANKELRYFDVWGQGTMVTVSSGGGGSGGGGSGGGGSEIVMTQSPATLSVSPGERATLSCRASQSISINLHWYQQKPGQAPRLLIYFASQSISGIPARFSGSGSGTEFTLTISSLQSEDFAVYYCQQSNSFPLTFGGGTKVEIKR ?
Response line: 1.5e+06

Prompt line: Now try scFv CP-A6 (scFv, scFv-80 variant: VH Y59H; not shown: proprietary C-terminal FLAG tag) scFv: QVQLVQSGAEVKKPGASVKVSCKASGYTFTDYYLHWVRQAPGQGLEWMGWIDPENGDTEHAPKFQGRVTMTTDTSTSTAYMELRSLRSDDTAVYYCNANKELRYFDVWGQGTMVTVSSGGGGSGGGGSGGGGSEIVMTQSPATLSVSPGERATLSCRASQSISINLHWYQQKPGQAPRLLIYFASQSISGIPARFSGSGSGTEFTLTISSLQSEDFAVYYCQQSNSFPLTFGGGTKVEIKR .
Response line: 2e+06

Prompt line: Also check scFv AV-F11 (scFv, scFv-80 variant: VH S112P; VL I75T; not shown: proprietary C-terminal FLAG tag) scFv: QVQLVQSGAEVKKPGASVKVSCKASGYTFTDYYLHWVRQAPGQGLEWMGWIDPENGDTEYAPKFQGRVTMTTDTSTSTAYMELRSLRSDDTAVYYCNANKELRYFDVWGQGTMVTVPSGGGGSGGGGSGGGGSEIVMTQSPATLSVSPGERATLSCRASQSISINLHWYQQKPGQAPRLLIYFASQSISGIPARFSGSGSGTEFTLTTSSLQSEDFAVYYCQQSNSFPLTFGGGTKVEIKR
Response line: 1.6e+06

Prompt line: Now consider scFv CR-B1 (scFv, scFv-80 variant: VH D85E; not shown: proprietary C-terminal FLAG tag) scFv: QVQLVQSGAEVKKPGASVKVSCKASGYTFTDYYLHWVRQAPGQGLEWMGWIDPENGDTEYAPKFQGRVTMTTDTSTSTAYMELRSLRSEDTAVYYCNANKELRYFDVWGQGTMVTVSSGGGGSGGGGSGGGGSEIVMTQSPATLSVSPGERATLSCRASQSISINLHWYQQKPGQAPRLLIYFASQSISGIPARFSGSGSGTEFTLTISSLQSEDFAVYYCQQSNSFPLTFGGGTKVEIKR and answer again.
Response line: 1.9e+06

Prompt line: Same read-out for scFv AW-F2 (scFv, scFv-80 variant: VH Y59S; not shown: proprietary C-terminal FLAG tag) scFv: QVQLVQSGAEVKKPGASVKVSCKASGYTFTDYYLHWVRQAPGQGLEWMGWIDPENGDTESAPKFQGRVTMTTDTSTSTAYMELRSLRSDDTAVYYCNANKELRYFDVWGQGTMVTVSSGGGGSGGGGSGGGGSEIVMTQSPATLSVSPGERATLSCRASQSISINLHWYQQKPGQAPRLLIYFASQSISGIPARFSGSGSGTEFTLTISSLQSEDFAVYYCQQSNSFPLTFGGGTKVEIKR ?
Response line: 2.2e+06

Prompt line: Same question, scFv AX-G4 (scFv, scFv-80 variant: VL S26P; not shown: proprietary C-terminal FLAG tag) scFv: QVQLVQSGAEVKKPGASVKVSCKASGYTFTDYYLHWVRQAPGQGLEWMGWIDPENGDTEYAPKFQGRVTMTTDTSTSTAYMELRSLRSDDTAVYYCNANKELRYFDVWGQGTMVTVSSGGGGSGGGGSGGGGSEIVMTQSPATLSVSPGERATLSCRAPQSISINLHWYQQKPGQAPRLLIYFASQSISGIPARFSGSGSGTEFTLTISSLQSEDFAVYYCQQSNSFPLTFGGGTKVEIKR this time
Response line: 2.3e+06

Prompt line: Further, for scFv CU-A6 (scFv, scFv-80 variant: VH F29L, T107A; VL S63F; not shown: proprietary C-terminal FLAG tag) scFv: QVQLVQSGAEVKKPGASVKVSCKASGYTLTDYYLHWVRQAPGQGLEWMGWIDPENGDTEYAPKFQGRVTMTTDTSTSTAYMELRSLRSDDTAVYYCNANKELRYFDVWGQGAMVTVSSGGGGSGGGGSGGGGSEIVMTQSPATLSVSPGERATLSCRASQSISINLHWYQQKPGQAPRLLIYFASQSISGIPARFFGSGSGTEFTLTISSLQSEDFAVYYCQQSNSFPLTFGGGTKVEIKR ?
Response line: 2e+06

Prompt line: Param item: scFv CE-B1 (scFv, scFv-80 variant: VH F29L; not shown: proprietary C-terminal FLAG tag) scFv: QVQLVQSGAEVKKPGASVKVSCKASGYTLTDYYLHWVRQAPGQGLEWMGWIDPENGDTEYAPKFQGRVTMTTDTSTSTAYMELRSLRSDDTAVYYCNANKELRYFDVWGQGTMVTVSSGGGGSGGGGSGGGGSEIVMTQSPATLSVSPGERATLSCRASQSISINLHWYQQKPGQAPRLLIYFASQSISGIPARFSGSGSGTEFTLTISSLQSEDFAVYYCQQSNSFPLTFGGGTKVEIKR
Response line: 2e+06

Prompt line: Same lookup for scFv BB-A9 (scFv, scFv-80 variant: VH T28A, T68S; not shown: proprietary C-terminal FLAG tag) scFv: QVQLVQSGAEVKKPGASVKVSCKASGYAFTDYYLHWVRQAPGQGLEWMGWIDPENGDTEYAPKFQGRVSMTTDTSTSTAYMELRSLRSDDTAVYYCNANKELRYFDVWGQGTMVTVSSGGGGSGGGGSGGGGSEIVMTQSPATLSVSPGERATLSCRASQSISINLHWYQQKPGQAPRLLIYFASQSISGIPARFSGSGSGTEFTLTISSLQSEDFAVYYCQQSNSFPLTFGGGTKVEIKR , please.
Response line: 2e+06

Prompt line: Try this binder next: scFv AU-G9 (scFv, scFv-80 variant: VH Q43R; VL I55T; not shown: proprietary C-terminal FLAG tag) scFv: QVQLVQSGAEVKKPGASVKVSCKASGYTFTDYYLHWVRQAPGRGLEWMGWIDPENGDTEYAPKFQGRVTMTTDTSTSTAYMELRSLRSDDTAVYYCNANKELRYFDVWGQGTMVTVSSGGGGSGGGGSGGGGSEIVMTQSPATLSVSPGERATLSCRASQSISINLHWYQQKPGQAPRLLIYFASQSTSGIPARFSGSGSGTEFTLTISSLQSEDFAVYYCQQSNSFPLTFGGGTKVEIKR
Response line: 2.1e+06
